assay-summary: qHTS for Inhibitors of Inflammasome Signaling: IL-1-beta AlphaLISA Primary Screen; further: on the % scale 0 is the no-effect control and ±100 the full control effect
condition-context: THP-1 LPS/ATP IL-1B secretion, 16 h; at 57.5 µM, active compounds read low
About 17,000 (4.7%) of roughly 360,000 compounds were called active. Roughly 5% stayed inconclusive and do not appear here. What follows is part of a selection rich in actives, with near analogues and random picks from the rest.
// activity change lookup, one value per entry
Field format: number, assumed %, no unit text.

Report measured activity change; entry is Cc1cccc(C(=O)N2CCc3c([nH]c4ccccc34)C2CC(C)C)n1 (stereo not drawn)
7.12

Report measured activity change; entry is CSCCC(NC(=O)c1ccc(Cl)cc1Cl)C(=O)NNC(=O)c1csc(N2CCOCC2)n1 (stereo not drawn)
-2.31

More entries:
Report measured activity change; entry is O=c1oc(/C=C/c2ccccc2)nc2ccccc12
-0.257

Report measured activity change; entry is O=C(CCN1C(=O)c2ccccc2C1=O)NCCN1CCOCC1
-5.01
